Measurement protocol: qHTS assay to identify small molecule antagonists of the estrogen receptor alpha (ER-alpha) signaling pathway using the BG1 cell line in the presence of 0.1 nM 17-beta-estradiol - cell viability counter screen (AID 1259241); also: nearly all actives have a fitted effect of over 40% in size
Test settings: VM7Luc4E2 (BG1) viability, CellTiter-Fluor protease, 22 h, 0.1 nM estradiol agonist added; series mostly up to 92.4 µM
Inconclusive results are not listed. Activity calls are given as the source filed them. Calls follow the shape of the dose curve; as a rule, active = well fitted cell-killing curve with a large enough effect in the repeat runs; inconclusive = weak or mixed curves, or effect the other way; inactive = flat fitted curve, though single readings scatter.
Measured attribute: outcome

Look over these answered cases.
Nc1nc(N)nc(NC2CC2)n1	inactive
CCOC(=O)CC(SP(=O)(OC)OC)C(=O)OCC (stereo not given)	inactive
CCCCCCCCCCCCCCCCCC(=O)O	inactive
O=[N+]([O-])c1ccc(Cl)cc1	inactive

Need outcome, item O=C(O)COc1ccccc1
inactive
